All values here come from patent US8541581B2.

Target sequence: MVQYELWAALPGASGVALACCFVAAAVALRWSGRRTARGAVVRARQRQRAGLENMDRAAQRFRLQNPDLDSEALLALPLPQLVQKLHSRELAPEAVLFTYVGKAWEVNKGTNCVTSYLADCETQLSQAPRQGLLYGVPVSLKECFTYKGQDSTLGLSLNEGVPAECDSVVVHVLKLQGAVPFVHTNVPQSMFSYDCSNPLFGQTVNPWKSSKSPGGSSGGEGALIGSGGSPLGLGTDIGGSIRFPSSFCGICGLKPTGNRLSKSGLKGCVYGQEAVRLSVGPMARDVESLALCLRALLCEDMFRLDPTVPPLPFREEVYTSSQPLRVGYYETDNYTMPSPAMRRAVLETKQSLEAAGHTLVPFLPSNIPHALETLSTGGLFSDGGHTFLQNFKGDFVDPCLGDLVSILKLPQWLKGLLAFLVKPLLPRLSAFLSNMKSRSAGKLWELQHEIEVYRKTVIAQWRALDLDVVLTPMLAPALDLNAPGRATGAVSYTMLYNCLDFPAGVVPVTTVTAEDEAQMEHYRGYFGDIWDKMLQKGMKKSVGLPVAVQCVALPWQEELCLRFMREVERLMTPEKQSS
pKi: −log10 of the molar value.
Can you tell me pKi for the items I'm about to list?

MOL | pKi
CC(=O)N1CC=C(B(O)O)CC1 | < 6.00
O=C(CNCc1ccccc1)N1CCC(B(O)O)CC1 | < 6.00
OB(O)C1CCN(Cc2ccccc2)CC1 | < 6.00
O=C(c1ccc2ccccc2n1)N1CCC(B(O)O)CC1 | 6.00 to 7.00
CC(C)(C)OC(=O)N1CCC(B(O)O)CC1 | 7.00 to 8.00

Look up pKi for the entries below, preserving their order.
1. O=C(OCc1ccccc1)N1CCC(B(O)O)CC1
2. Cc1c(CN2CCC(B(O)O)CC2)sc2ccccc12
3. O=C([C@H]1CCCN1)N1CCC(B(O)O)CC1
4. Cc1ccc(S(=O)(=O)N2CCC(B(O)O)CC2)cc1
5. CC(C)(C)OC(=O)N1CC=C(B(O)O)CC1

1: 7.00 to 8.00; 2: 7.00 to 8.00; 3: < 6.00; 4: 6.00 to 7.00; 5: 6.00 to 7.00
